Target: Pdr3 (UniProt P33200)
Sequence: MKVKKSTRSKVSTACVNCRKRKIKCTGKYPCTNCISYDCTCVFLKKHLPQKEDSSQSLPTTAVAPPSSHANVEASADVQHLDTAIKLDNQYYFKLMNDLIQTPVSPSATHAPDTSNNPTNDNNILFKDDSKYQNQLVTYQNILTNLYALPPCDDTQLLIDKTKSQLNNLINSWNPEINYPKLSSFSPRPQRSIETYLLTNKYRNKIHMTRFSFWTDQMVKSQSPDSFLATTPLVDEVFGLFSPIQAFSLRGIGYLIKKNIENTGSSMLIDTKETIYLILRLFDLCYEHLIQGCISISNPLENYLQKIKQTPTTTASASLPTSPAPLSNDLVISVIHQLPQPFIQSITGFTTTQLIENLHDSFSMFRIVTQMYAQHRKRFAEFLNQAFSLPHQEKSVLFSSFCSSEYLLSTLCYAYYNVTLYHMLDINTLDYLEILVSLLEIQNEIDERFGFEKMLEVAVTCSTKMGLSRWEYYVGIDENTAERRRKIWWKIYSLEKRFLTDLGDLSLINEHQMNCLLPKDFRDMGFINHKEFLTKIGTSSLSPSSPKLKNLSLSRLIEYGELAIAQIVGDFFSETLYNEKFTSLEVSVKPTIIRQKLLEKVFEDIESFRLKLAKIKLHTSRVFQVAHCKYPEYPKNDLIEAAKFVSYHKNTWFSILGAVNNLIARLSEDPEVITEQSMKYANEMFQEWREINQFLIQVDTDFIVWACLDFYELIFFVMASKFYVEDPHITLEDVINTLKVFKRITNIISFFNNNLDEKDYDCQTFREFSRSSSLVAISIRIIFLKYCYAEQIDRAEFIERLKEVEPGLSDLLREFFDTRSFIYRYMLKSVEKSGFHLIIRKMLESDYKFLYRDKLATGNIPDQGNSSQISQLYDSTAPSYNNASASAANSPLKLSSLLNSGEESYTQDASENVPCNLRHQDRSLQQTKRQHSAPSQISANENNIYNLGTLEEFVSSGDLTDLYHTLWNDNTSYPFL
Experiment: PBM E-score (8-mer binding enrichment) (E-score (-0.5 to 0.5)); higher = stronger / more preferred TF binding
Details: protein concentration: 200 nM; construct: GST-full length
The full ranking holds about 33,000 sequences; the median of “E-score (-0.5 to 0.5)” is about -0.035, and the highest 2% start at about 0.35. The list comes from a sample in which the highest values are over-represented; it also holds close analogues and randomly drawn sequences.
Recorded Metric: PBM E-score
Give a plain numeric answer without units written out.

[[record]]
polymer_sequence = "AACCGCCA"
test_target = "Pdr3 (UniProt P33200)"
recorded_metric = "PBM E-score"
val = -0.0357

[[record]]
polymer_sequence = "CGCATGAG"
test_target = "Pdr3 (UniProt P33200)"
recorded_metric = "PBM E-score"
val = -0.164

[[record]]
polymer_sequence = "AATATTAA"
test_target = "Pdr3 (UniProt P33200)"
recorded_metric = "PBM E-score"
val = 0.244

[[record]]
polymer_sequence = "ATCTGCTA"
test_target = "Pdr3 (UniProt P33200)"
recorded_metric = "PBM E-score"
val = -0.241


// lookup PBM E-score for `ATCGCATC`
0.121

Need PBM E-score of `CGATCTGA` , thanks.
0.0713

Look at this sequence and give its reported PBM E-score. `ATGCGGTC`
0.21

Record request: PBM E-score value, item `TGTCGCAA`
-0.0293

Given the sequence `CGACCTCC` , what is its reported PBM E-score?
0.208

Fill in: PBM E-score of `GCTACGAC` is ___
0.0127
